test system: SW-620; assay: NCI tumour cell line growth inhibition, 48 h
Calls of active or inactive are those of the source. No stated cut-off is given here; in the data, active = GI50 up to about 1.1 µM and inactive = higher.
quantityKind: GI50

q: Identify measured GI50 corresponding to NNC(=O)C(=O)N/N=C1/CCCC1C(=O)CCC(=O)Nc1ccc(Cl)cc1 (centres undefined)
a: > 100 µM (inactive)

q: Identify measured GI50 corresponding to `O=C(NO)NCCCl`
a: > 100 µM (inactive)

q: Identify measured GI50 corresponding to Cc1ccc(S(=O)(=O)OC(C=O)C(O)C(O)COC(c2ccccc2)(c2ccccc2)c2ccccc2)cc1 (centres undefined)
a: 16.4 µM (inactive)

q: Identify measured GI50 corresponding to `CCCC1c2c(ccc3ccccc23)Oc2ccc3ccccc3c21`
a: 82.4 µM (inactive)

q: Identify measured GI50 corresponding to CCOP(=O)(OCC)C1CCCOC1=O (centres undefined)
a: > 100 µM (inactive)

q: Identify measured GI50 corresponding to c1ccc2c(c1)nc1n2C2CCC(C2)N1 (centres undefined)
a: > 10 µM (inactive)

q: Identify measured GI50 corresponding to CC1OC(OCC2COC(O)(Oc3c(-c4ccc(O)c(O)c4)oc4cc(O)cc(O)c4c3=O)C(O)C2O)C(O)C(O)C1O (centres undefined)
a: > 100 µM (inactive)

q: Identify measured GI50 corresponding to `CCCCCCCCCCCCc1ccsc1-c1ccc(-c2ccc(-c3sc(-c4cc(CCCCCCCCCCCC)c(-c5ccc(-c6ccc(-c7sccc7CCCCCCCCCCCC)s6)s5)s4)cc3CCCCCCCCCCCC)s2)s1`
a: > 100 µM (inactive)

q: Identify measured GI50 corresponding to CCN(/N=C1\CC2C=CCN(C2)C(=O)Cc2c1[nH]c1ccccc21)S(=O)(=O)c1ccc(C)cc1 (centres undefined)
a: 78 µM (inactive)

====

tested on: UACC-257; test: NCI tumour cell line growth inhibition, 48 h
Activity calls are given as the source filed them. No stated cut-off is given here; in the data, active = GI50 up to about 1.1 µM and inactive = higher.
Field 'call' accepts active, inactive

q: Just curious, what result did `O=C1c2ccccc2C(=O)c2c1nc1ccccc1c2-c1cncc(-c2c3c(nc4ccccc24)C(=O)c2ccccc2C3=O)c1` get here?
a: inactive

q: Just curious, what result did `CC(=O)/C(=N\O)C(=O)NCc1ccccc1` get here?
a: inactive

q: Just curious, what result did `Nc1ccc2[nH]cc(CCC(=O)O)c2c1` get here?
a: inactive

q: Just curious, what result did `CC(=O)c1ccc(Nc2nc3ccccc3c3occc23)cc1` get here?
a: inactive

q: Just curious, what result did `Oc1cc(-c2cccc(Cl)c2)nc2cc3c(cc12)OCO3` get here?
a: active

q: Just curious, what result did `COC(=O)c1c(O)ccc2c1c1c(n2Cc2ccc(OC)cc2)C(=O)c2ccccc2C1` get here?
a: inactive

q: Just curious, what result did C=C1C(=O)OC2CC(C)C(/C=C/C(C)=O)=CCC12 (centres undefined) get here?
a: inactive

q: Just curious, what result did CC1OC(OC2C(OC(=O)[C@]34CCC(C)(C)C[C@H]3C3=CC[C@@H]5[C@@]6(C)CC[C@H](OC7OC(C(=O)O)C(O)C(O)C7O)C(C)(C)[C@@H]6CC[C@@]5(C)[C@]3(C)C[C@H]4O)OCC(O)C2O)C(O)C(OC2OCC(O)(CO)C2O)C1OC1OCC(O)C(O)C1O (some centres undefined) get here?
a: inactive

q: Just curious, what result did C=C1CC2(CC(c3ccccc3Cl)OC(c3ccccc3Cl)C2)OC1=O (centres undefined) get here?
a: inactive

====

Provide the reported GI50 of each item.
system: MDA-MB-435; assay: NCI tumour cell line growth inhibition, 48 h
Activity calls are given as the source filed them. No stated cut-off is given here; in the data, active = GI50 up to about 1.1 µM and inactive = higher.

q: Identify measured GI50 corresponding to `N#Cc1cccc(Nc2ccccc2SSc2ccccc2Nc2cccc(C#N)c2)c1`
a: 8.69 µM (inactive)

q: Identify measured GI50 corresponding to `Cc1sc2nc3n(c(=O)c2c1C)N=CN(c1ccccc1)C3`
a: > 100 µM (inactive)

q: Identify measured GI50 corresponding to Cc1ccc2c(c1)C(O)(c1ccccc1)CCS2 (configuration not stated)
a: 27.7 µM (inactive)

q: Identify measured GI50 corresponding to COc1cc(C2SCC(=O)N2c2ccc(-n3c(-c4ccccc4)nc4ccccc4c3=O)cc2)ccc1O (configuration not stated)
a: > 100 µM (inactive)

q: Identify measured GI50 corresponding to `Nc1c(C(=O)O)nnc2cc(Cl)ccc12`
a: > 100 µM (inactive)

q: Identify measured GI50 corresponding to `NC(=O)CC[C@H]1C(=O)N=C(N)N1C(=O)OCc1ccccc1`
a: > 100 µM (inactive)

q: Identify measured GI50 corresponding to `CCC(=N\NC(N)=S)/C(C)=N/O`
a: > 100 µM (inactive)

====

test system: NCI/ADR-RES; assay: NCI tumour cell line growth inhibition, 48 h
Activity calls are given as the source filed them. Rule as the data show it: active = GI50 up to about 1.1 µM and inactive = higher.
Field 'call' accepts Y (active), N (inactive)

q: Just curious, what result did `CN1C/C(=C\c2ccccc2[N+](=O)[O-])C(=O)/C(=C/c2ccccc2[N+](=O)[O-])C1` get here?
a: N

q: Just curious, what result did `Cn1c(=O)cc(NCCc2ccccc2)[nH]c1=O` get here?
a: N

q: Just curious, what result did `O=C(NNc1cn[nH]c(=O)c1Cl)/C(=C/c1ccc2c(c1)OCO2)NC(=O)c1ccccc1` get here?
a: N

q: Just curious, what result did COc1ccc(C(C)NNC(=O)c2ccncc2)cc1OC (stereo not given) get here?
a: N

q: Just curious, what result did `CCSc1nnc(Sc2c3ccccc3nc3ccccc23)s1` get here?
a: N

q: Just curious, what result did `Cc1ccnc2nc(-c3cccc(Cl)c3)cc(O)c12` get here?
a: Y

q: Just curious, what result did C=C1C(=O)OC2CC(C)C(/C=C/C(C)=O)=CCC12 (stereo not given) get here?
a: N

q: Just curious, what result did `Brc1cc2nn(-c3ccccc3)nc2c2nonc12` get here?
a: N

q: Just curious, what result did `CCC(=N\NC(N)=S)/C(C)=N/O` get here?
a: N

q: Just curious, what result did `c1ccc(CN2CCc3[nH]c4ccccc4c3C2)cc1` get here?
a: N

q: Just curious, what result did `O=C(NO)NCCCl` get here?
a: N

q: Just curious, what result did CC(C)(C)OC(=O)NC(Cc1ccccc1)NC(=O)NC(=O)OCc1ccccc1 (stereo not given) get here?
a: N

q: Just curious, what result did `Nc1ccc2c(SCCSc3c4ccccc4nc4cc(N)ccc34)c3ccccc3nc2c1` get here?
a: N

q: Just curious, what result did `CCC(=O)O[C@H]1CC[C@H]2[C@@H]3CCC4=CC(=O)C=C[C@]4(O)[C@H]3CC[C@]12C` get here?
a: N

q: Just curious, what result did `Cc1ccc(S(=O)(=O)[C@@H](Cl)[C@H]2N=C(Cl)NN=C2c2ccccc2)cc1` get here?
a: N

q: Just curious, what result did CCOC(=O)C1CCC/C1=N\NC(=N)N.Cc1cc(O)c(C(C)C)cc1S(=O)(=O)O (stereo not given) get here?
a: N

q: Just curious, what result did `CO[C@@H]1C[C@H]2N3CC[C@@]2(c2cc4c(cc2C3)OCO4)[C@H]2O[C@@H]12` get here?
a: N

q: Just curious, what result did `O=C(/C=C(\C(=O)c1cccs1)c1cccs1)c1ccc(C(=O)/C=C(\C(=O)c2cccs2)c2cccs2)cc1` get here?
a: N

q: Just curious, what result did Cc1cc2c(cc1C)C(=O)C1(C2)Cc2c(ccc(C)c2C)C1=O (stereo not given) get here?
a: N

q: Just curious, what result did CC[C@]12C=CCN3CCC4(c5cc([C@@]6(C(=O)OC)CC7CN(CCc8c6[nH]c6ccccc86)C[C@@H]6CCCC[C@H]76)c(OC)cc5N(C)C4[C@](O)(C(=O)OC)C1OC(C)=O)[C@@H]32 (stereo not given in full) get here?
a: Y

====

test system: COLO 205; assay: NCI tumour cell line growth inhibition, 48 h
Calls of active or inactive are those of the source. No stated cut-off is given here; in the data, active = GI50 up to about 1.1 µM and inactive = higher.
quantityKind: GI50

q: Identify measured GI50 corresponding to `CCN(C(=S)N[C@@H](Cc1ccccc1)C(=O)N[C@@H](CC(C)C)C(=O)OC)c1ccccc1`
a: 49.2 µM (inactive)

q: Identify measured GI50 corresponding to `Cc1nc(N)nc(S)c1CCCNc1ccccc1`
a: 23.5 µM (inactive)

q: Identify measured GI50 corresponding to `CSc1nc(N)c2c(-c3ccccc3)c3c(nc2n1)CCCC3`
a: > 100 µM (inactive)

q: Identify measured GI50 corresponding to `CN1C/C(=C\c2ccccc2[N+](=O)[O-])C(=O)/C(=C/c2ccccc2[N+](=O)[O-])C1`
a: 0.164 µM (active)

q: Identify measured GI50 corresponding to `CSC(=N)N1N=C2c3ccccc3CC[C@@H]2[C@@H]1c1ccccc1`
a: 13.1 µM (inactive)

q: Identify measured GI50 corresponding to `NC(=O)CC[C@H]1C(=O)N=C(N)N1C(=O)OCc1ccccc1`
a: > 100 µM (inactive)

q: Identify measured GI50 corresponding to c1ccc(C2SCC3=Nc4ccccc4CN32)cc1 (stereo unspecified)
a: 19.4 µM (inactive)

q: Identify measured GI50 corresponding to NNC(=O)C(=O)N/N=C1/CCCC1C(=O)CCC(=O)Nc1ccc(Cl)cc1 (stereo unspecified)
a: > 100 µM (inactive)

q: Identify measured GI50 corresponding to `N#Cc1cccc(Nc2ccccc2SSc2ccccc2Nc2cccc(C#N)c2)c1`
a: > 10 µM (inactive)

q: Identify measured GI50 corresponding to COC(=O)C1Cc2c([nH]c3ccccc23)[C@H](CC(C)C)N1 (stereo partly specified)
a: > 100 µM (inactive)

q: Identify measured GI50 corresponding to `Oc1cc(-c2cccc(Cl)c2)nc2cc3c(cc12)OCO3`
a: 1.85 µM (inactive)

q: Identify measured GI50 corresponding to CC(C)(C)[Si](C)(C)OCC1OC(n2cnc3c(N)ncnc32)C(O)C1O (stereo unspecified)
a: > 100 µM (inactive)

q: Identify measured GI50 corresponding to CN[C@@H](C)[C@H](OP(=O)(O)OC1[C@@H](O)[C@H](O)C(O)[C@H](O)[C@@H]1O)c1ccccc1 (stereo partly specified)
a: > 100 µM (inactive)

q: Identify measured GI50 corresponding to `COc1ccc(-c2cc(=O)c3c(O)cccc3o2)c(OC)c1OC`
a: > 100 µM (inactive)

q: Identify measured GI50 corresponding to CN1C(=O)C(CC=O)(C(C)(C)C)c2ccccc21 (stereo unspecified)
a: > 100 µM (inactive)

q: Identify measured GI50 corresponding to OC(COc1ccccc1)CN1CCCCC1 (stereo unspecified)
a: > 100 µM (inactive)

q: Identify measured GI50 corresponding to NC1CC(=O)c2cc(Cl)sc21 (stereo unspecified)
a: > 100 µM (inactive)

q: Identify measured GI50 corresponding to `N#Cc1cc([N+](=O)[O-])ccc1NC(=O)C(=O)Nn1c(S)nc2ccccc2c1=O`
a: > 100 µM (inactive)

q: Identify measured GI50 corresponding to `Cn1c(=O)ccc2cc(C(=O)c3ccccc3)ccc21`
a: > 100 µM (inactive)

q: Identify measured GI50 corresponding to O=C(Nc1ccn(C2CCC(COC(c3ccccc3)(c3ccccc3)c3ccccc3)O2)c(=O)n1)c1ccccc1 (stereo unspecified)
a: 1.77 µM (inactive)

q: Identify measured GI50 corresponding to c1ccc2nc(CCC3CCCCN3)ccc2c1 (stereo unspecified)
a: 16.7 µM (inactive)

q: Identify measured GI50 corresponding to `CCn1c2ccccc2c2cc(Nc3cc(C)[nH]c(=O)n3)ccc21`
a: > 100 µM (inactive)

q: Identify measured GI50 corresponding to O=C(Nc1cccc(O)c1)C(=O)C(C(=O)c1ccc(Cl)c(Cl)c1)C1OC(=O)c2ccccc21 (stereo unspecified)
a: 15.9 µM (inactive)

q: Identify measured GI50 corresponding to Cc1ccc2c(c1)C(O)(c1ccccc1)CCS2 (stereo unspecified)
a: 30.3 µM (inactive)

q: Identify measured GI50 corresponding to `COC(=O)/C=C(/C)n1nc2ccccc2n1`
a: > 100 µM (inactive)

q: Identify measured GI50 corresponding to `NNC(=S)N1CCN(C(=S)NN)CC1`
a: 65.8 µM (inactive)

q: Identify measured GI50 corresponding to CC(=O)Nc1ccc2c3c(cc(O)c2c1)N(C(=O)CCCCCCC(=O)N1CC(CCl)c2c1cc(O)c1cc(NC(C)=O)ccc21)CC3CCl (stereo unspecified)
a: 0.0105 µM (active)

q: Identify measured GI50 corresponding to Nc1nc(O)c2c(ncn2CC(O)CO)n1 (stereo unspecified)
a: > 100 µM (inactive)

q: Identify measured GI50 corresponding to COc1cc2c(cc1Oc1ccc(OC)c3c1CC1c4c(cc(OC)c(OC)c4-3)CCN1C)CC1c3c(cc(OC)c(OC)c3-2)CCN1C (stereo unspecified)
a: 1.48 µM (inactive)

q: Identify measured GI50 corresponding to `Cn1c(O)c(C(=O)Nc2cccs2)c(=O)[nH]c1=S`
a: 16.6 µM (inactive)

q: Identify measured GI50 corresponding to `CCCN1CC=C(c2cc(C(=O)OCC)[nH]c2-c2cc(C)no2)C1=O`
a: > 100 µM (inactive)

q: Identify measured GI50 corresponding to CC[C@]12C=CCN3CCC4(c5cc([C@@]6(C(=O)OC)CC7CN(CCc8c6[nH]c6ccccc86)C[C@@H]6CCCC[C@H]76)c(OC)cc5N(C)C4[C@](O)(C(=O)OC)C1OC(C)=O)[C@@H]32 (stereo partly specified)
a: < 0.01 µM (active)

q: Identify measured GI50 corresponding to `CN(C)CCNC(=O)c1cccc2c1nc(-c1ccc(F)cc1)c1ccccc12`
a: 3.21 µM (inactive)

q: Identify measured GI50 corresponding to CC1OC(OC2C(OC(=O)[C@]34CCC(C)(C)C[C@H]3C3=CC[C@@H]5[C@@]6(C)CC[C@H](OC7OC(C(=O)O)C(O)C(O)C7O)C(C)(C)[C@@H]6CC[C@@]5(C)[C@]3(C)C[C@H]4O)OCC(O)C2O)C(O)C(OC2OCC(O)(CO)C2O)C1OC1OCC(O)C(O)C1O (stereo partly specified)
a: 1.81 µM (inactive)

q: Identify measured GI50 corresponding to `Cc1cc(C)c2c(O)cc(-c3ccc4ccccc4c3)nc2n1`
a: 18.3 µM (inactive)

q: Identify measured GI50 corresponding to c1ccc2c(c1)N=C(c1cccc3ccccc13)CC(c1ccc3c(c1)OCO3)S2 (stereo unspecified)
a: > 100 µM (inactive)

q: Identify measured GI50 corresponding to CC1(C)C2CC(=O)C1(C)C(OCc1ccccc1)C2 (stereo unspecified)
a: 29.6 µM (inactive)

q: Identify measured GI50 corresponding to `O=C(NO)c1coc2ccccc2c1=O`
a: 39.4 µM (inactive)

q: Identify measured GI50 corresponding to `CC(=O)c1ccc(N2CCN(C3=CC(=O)c4c(O)ccc(O)c4C3=O)CC2)cc1`
a: 35.5 µM (inactive)

q: Identify measured GI50 corresponding to `CCN(CC)C(=O)N1CCN(C=S)CC1`
a: > 100 µM (inactive)

q: Identify measured GI50 corresponding to `CO/N=C(/C(=O)Nc1c[n+](CC(=O)[O-])cs1)c1csc(N)n1`
a: > 100 µM (inactive)

Where do the numbers come from? From ChEMBL document CHEMBL1201862.
